- System: BT-549 breast
- PROTOCOL SUMMARY: NCI tumour cell line growth inhibition, 48 h
EXPERIMENTAL ENDPOINT: TGI

[
  {
    "MOLECULE": "Cc1nc(-c2cc3c(ccc4ccccc43)oc2=O)cs1",
    "TARGET ENTITY": "BT-549 breast",
    "OBS VALUE": "57.8 µM"
  },
  {
    "MOLECULE": "O=C(O)/C=C(\\c1nc2ccc([N+](=O)[O-])cc2[nH]1)c1cc(Cl)ccc1O",
    "TARGET ENTITY": "BT-549 breast",
    "OBS VALUE": "7.25 µM"
  },
  {
    "MOLECULE": "O=c1[nH]nc(-c2ccccc2)n1-c1ccncc1",
    "TARGET ENTITY": "BT-549 breast",
    "OBS VALUE": "> 100 µM"
  },
  {
    "MOLECULE": "c1ccc(-c2nc3ccccc3n3c(CN4CCCCC4)nnc23)cc1",
    "TARGET ENTITY": "BT-549 breast",
    "OBS VALUE": "> 100 µM"
  },
  {
    "MOLECULE": "CC[C@@]1(c2ccccc2)C2=C(CC(C)(C)CC2=O)Nc2[nH]ncc21",
    "TARGET ENTITY": "BT-549 breast",
    "OBS VALUE": "> 100 µM"
  },
  {
    "MOLECULE": "N#CSC1CCCCNC1=O (stereo unspecified)",
    "TARGET ENTITY": "BT-549 breast",
    "OBS VALUE": "21.5 µM"
  },
  {
    "MOLECULE": "O=C1N=C(SC2OC(CO)C(O)C(O)C2O)S/C1=C\\c1ccccc1 (stereo unspecified)",
    "TARGET ENTITY": "BT-549 breast",
    "OBS VALUE": "> 100 µM"
  },
  {
    "MOLECULE": "N#CC12CNCC1CN=N2 (stereo unspecified)",
    "TARGET ENTITY": "BT-549 breast",
    "OBS VALUE": "> 100 µM"
  },
  {
    "MOLECULE": "O=c1cc(N2CCNCC2)nc2ccccn12",
    "TARGET ENTITY": "BT-549 breast",
    "OBS VALUE": "> 100 µM"
  },
  {
    "MOLECULE": "Cc1cc(S(=O)(=O)Nc2nc(N)n(-c3ccccn3)n2)c(S)cc1Cl",
    "TARGET ENTITY": "BT-549 breast",
    "OBS VALUE": "> 100 µM"
  },
  {
    "MOLECULE": "CCCCCCCCCCCCN(CC(O)C(O)C(OC1OC(CO)C(O)C(O)C1O)C(O)CO)C(=O)CCCCCCCCCCC (stereo unspecified)",
    "TARGET ENTITY": "BT-549 breast",
    "OBS VALUE": "40.4 µM"
  },
  {
    "MOLECULE": "CN(C)c1ccc(/C=C2/NC(=S)NC2=O)cc1",
    "TARGET ENTITY": "BT-549 breast",
    "OBS VALUE": "> 100 µM"
  },
  {
    "MOLECULE": "O=S(=O)(SC1=NCCN1)c1ccc2ccccc2c1",
    "TARGET ENTITY": "BT-549 breast",
    "OBS VALUE": "83.9 µM"
  },
  {
    "MOLECULE": "COc1nc(N=P(c2ccccc2)(c2ccccc2)c2ccccc2)cc(=O)[nH]1",
    "TARGET ENTITY": "BT-549 breast",
    "OBS VALUE": "> 100 µM"
  },
  {
    "MOLECULE": "CN1CCN(c2ccc3[nH]c(-c4cc(O)c5c(nc(CO)n5C)c4O)nc3n2)CC1",
    "TARGET ENTITY": "BT-549 breast",
    "OBS VALUE": "> 100 µM"
  },
  {
    "MOLECULE": "COc1cc(/C=C2/SC(c3ccccc3)N(c3ccccc3Cl)C2=O)cc(OC)c1OC (stereo unspecified)",
    "TARGET ENTITY": "BT-549 breast",
    "OBS VALUE": "85.1 µM"
  },
  {
    "MOLECULE": "COc1cc2cc(Oc3ccc(NC(=O)Nc4ccc(Cl)c(C(F)(F)F)c4)cc3)c(C)nc2cc1OCCN1CCOCC1",
    "TARGET ENTITY": "BT-549 breast",
    "OBS VALUE": "9.33 µM"
  },
  {
    "MOLECULE": "COC(=O)c1cc2c(cc1CC1Cc3cc4c(cc3C1=O)CCC4)CCC2 (stereo unspecified)",
    "TARGET ENTITY": "BT-549 breast",
    "OBS VALUE": "> 100 µM"
  },
  {
    "MOLECULE": "COc1ccc(C[C@@H](CO)NC2=C(C#N)CCC2)cc1",
    "TARGET ENTITY": "BT-549 breast",
    "OBS VALUE": "> 100 µM"
  },
  {
    "MOLECULE": "CC(CCC(=O)O)(c1ccc(O)cc1)c1ccc(O)cc1",
    "TARGET ENTITY": "BT-549 breast",
    "OBS VALUE": "> 100 µM"
  },
  {
    "MOLECULE": "COc1cc2ncnc(Nc3cccc(Cl)c3)c2cc1OC",
    "TARGET ENTITY": "BT-549 breast",
    "OBS VALUE": "13.7 µM"
  }
]
